- targetUnderTest: UniProt P29597
- Sequence (P29597 whole entry): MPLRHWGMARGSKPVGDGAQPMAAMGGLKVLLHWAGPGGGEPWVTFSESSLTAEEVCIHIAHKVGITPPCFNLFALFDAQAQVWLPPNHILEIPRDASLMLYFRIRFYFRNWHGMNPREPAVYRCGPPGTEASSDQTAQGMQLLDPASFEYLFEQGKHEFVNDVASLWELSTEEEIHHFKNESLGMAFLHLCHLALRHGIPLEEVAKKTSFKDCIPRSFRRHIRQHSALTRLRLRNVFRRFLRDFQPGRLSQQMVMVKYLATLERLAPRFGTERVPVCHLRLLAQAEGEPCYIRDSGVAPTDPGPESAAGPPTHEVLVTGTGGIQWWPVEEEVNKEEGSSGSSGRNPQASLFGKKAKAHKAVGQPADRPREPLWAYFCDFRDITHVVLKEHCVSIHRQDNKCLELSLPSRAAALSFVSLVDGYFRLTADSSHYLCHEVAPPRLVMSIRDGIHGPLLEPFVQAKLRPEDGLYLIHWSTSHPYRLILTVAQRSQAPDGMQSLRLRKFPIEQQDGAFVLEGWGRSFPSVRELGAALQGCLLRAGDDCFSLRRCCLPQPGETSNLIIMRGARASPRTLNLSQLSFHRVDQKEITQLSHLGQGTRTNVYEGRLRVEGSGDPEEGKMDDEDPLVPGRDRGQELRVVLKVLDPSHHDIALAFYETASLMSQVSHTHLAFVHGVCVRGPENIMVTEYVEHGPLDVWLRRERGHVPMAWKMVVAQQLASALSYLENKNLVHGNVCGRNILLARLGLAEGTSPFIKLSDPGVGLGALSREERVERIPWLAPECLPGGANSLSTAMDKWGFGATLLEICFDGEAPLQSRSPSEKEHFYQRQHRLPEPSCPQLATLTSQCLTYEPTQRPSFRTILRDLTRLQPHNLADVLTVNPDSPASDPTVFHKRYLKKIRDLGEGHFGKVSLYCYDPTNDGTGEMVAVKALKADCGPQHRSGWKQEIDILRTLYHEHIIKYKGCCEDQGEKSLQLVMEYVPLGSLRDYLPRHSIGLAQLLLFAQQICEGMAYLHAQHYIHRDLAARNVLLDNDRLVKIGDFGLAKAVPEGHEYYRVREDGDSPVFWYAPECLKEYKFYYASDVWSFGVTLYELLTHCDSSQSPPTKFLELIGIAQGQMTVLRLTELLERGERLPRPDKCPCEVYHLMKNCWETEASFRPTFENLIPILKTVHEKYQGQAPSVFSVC
- conditionDescription: BaF3
- Description: Inhibition of TYK2 (unknown origin) transfected in mouse BAF3 cells assessed as cell growth inhibition incubated for 72 hrs by CCK8 assay
assayMetric: GI50

>>> obsvalue("CNC(=O)c1cnc2[nH]ccc2c1NC1CCCN(Cc2cccc(Cl)c2)CC1 (centres undefined)")
"> 10 µM"
>>> obsvalue("CNC(=O)c1cnc2[nH]ccc2c1N[C@@H]1CCN(Cc2cccc(Cl)c2)[C@@H](C)C1 (relative stereo)")
"4.75 µM"

Could you tell me GI50 for each of these compounds? They are listed below.
1. CNC(=O)c1cnc2[nH]ccc2c1N[C@@H]1CCN(Cc2cccc(OC)c2)C[C@@H]1F (relative stereo)
2. O=C(Nc1nc2cccc(-c3ccc(CN4CCS(=O)(=O)CC4)cc3)n2n1)C1CC1
3. CNC(=O)c1cnc2[nH]ccc2c1N[C@@H]1CCN(Cc2ccc(Cl)cc2)[C@H](C)C1
4. CNC(=O)c1cnc2[nH]ccc2c1NC1CC2CCC(C1)N2Cc1ccc(Cl)cc1 (centres undefined)
5. CNC(=O)c1cnc2[nH]ccc2c1N[C@@H]1CCN(Cc2ccc(Cl)cc2)[C@H](C)C1 (relative stereo)
6. CNC(=O)c1cnc2[nH]ccc2c1N[C@H]1CCN(Cc2ccc(Cl)cc2)[C@@H](C)C1
7. CC(=O)Nc1cc(Oc2ccc3c(c2)CCN3C(=O)Nc2ccc(CN3CCN(C)CC3)c(C(F)(F)F)c2)ncn1

1. 9.65 µM
2. 7.19 µM
3. > 10 µM
4. 1.71 µM
5. 0.655 µM
6. 0.475 µM
7. 0.15 µM

* * *

- targetUnderTest: Tyrosine-protein kinase JAK1 (Homo sapiens, UniProt P23458)
- Sequence (P23458 whole entry): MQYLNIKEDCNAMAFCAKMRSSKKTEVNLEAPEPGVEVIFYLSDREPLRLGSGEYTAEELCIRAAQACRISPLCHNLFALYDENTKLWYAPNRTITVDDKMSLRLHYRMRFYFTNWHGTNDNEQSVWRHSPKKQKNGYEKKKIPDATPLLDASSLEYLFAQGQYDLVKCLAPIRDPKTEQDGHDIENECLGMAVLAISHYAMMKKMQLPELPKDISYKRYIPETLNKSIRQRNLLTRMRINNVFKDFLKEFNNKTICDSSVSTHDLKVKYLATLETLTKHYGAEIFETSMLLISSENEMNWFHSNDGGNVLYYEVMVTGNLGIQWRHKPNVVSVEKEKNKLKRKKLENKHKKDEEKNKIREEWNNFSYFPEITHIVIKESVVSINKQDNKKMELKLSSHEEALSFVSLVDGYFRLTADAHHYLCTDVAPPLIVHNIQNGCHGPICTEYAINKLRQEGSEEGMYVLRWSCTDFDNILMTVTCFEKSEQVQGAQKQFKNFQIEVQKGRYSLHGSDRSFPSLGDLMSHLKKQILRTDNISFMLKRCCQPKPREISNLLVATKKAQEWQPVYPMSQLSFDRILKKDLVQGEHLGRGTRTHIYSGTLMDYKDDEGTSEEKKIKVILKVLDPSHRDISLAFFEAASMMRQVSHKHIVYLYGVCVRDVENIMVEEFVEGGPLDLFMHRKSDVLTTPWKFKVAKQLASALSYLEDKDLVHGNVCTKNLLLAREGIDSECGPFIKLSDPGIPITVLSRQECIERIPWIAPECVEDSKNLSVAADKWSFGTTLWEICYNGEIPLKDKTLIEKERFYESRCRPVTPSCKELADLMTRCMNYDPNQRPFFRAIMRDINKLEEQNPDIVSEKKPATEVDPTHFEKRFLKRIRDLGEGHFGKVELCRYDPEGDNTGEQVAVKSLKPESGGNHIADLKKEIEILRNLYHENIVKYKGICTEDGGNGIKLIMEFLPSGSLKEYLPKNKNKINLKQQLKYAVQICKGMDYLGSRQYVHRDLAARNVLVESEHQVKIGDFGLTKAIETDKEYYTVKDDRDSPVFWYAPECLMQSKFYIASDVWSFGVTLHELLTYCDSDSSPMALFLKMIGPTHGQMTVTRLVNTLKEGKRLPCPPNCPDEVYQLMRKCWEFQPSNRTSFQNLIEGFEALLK
- conditionDescription: BaF3
- Description: Inhibition of JAK1 (unknown origin) transfected in mouse BAF3 cells assessed as cell growth inhibition incubated for 72 hrs by CCK8 assay
Consider the cut-off 500 nM. If the recorded GI50 is strictly smaller, the label is Yes; if not, the label is No.

Please review the entries below; each comes with its answer.
>>> assignedcategory("CNC(=O)c1cnc2[nH]ccc2c1NC1CC2CCC(C1)N2Cc1ccc(Cl)cc1 (centres undefined)")
"No"
>>> assignedcategory("CNC(=O)c1cnc2[nH]ccc2c1N[C@@H]1CCN(Cc2cccc(OC)c2)C[C@@H]1F (relative stereo)")
"Yes"

Consider CC(=O)Nc1cc(Oc2ccc3c(c2)CCN3C(=O)Nc2ccc(CN3CCN(C)CC3)c(C(F)(F)F)c2)ncn1 . Does its GI50 lie strictly below 500 nM?
Yes

Is GI50 strictly under 500 nM for the entry O=C(Nc1nc2cccc(-c3ccc(CN4CCS(=O)(=O)CC4)cc3)n2n1)C1CC1 ?
No

Say whether its GI50 is strictly beneath 500 nM. Entry: CNC(=O)c1cnc2[nH]ccc2c1N[C@H]1CCN(Cc2ccc(Cl)cc2)[C@@H](C)C1
Yes

Does CNC(=O)c1cnc2[nH]ccc2c1NC1CCCN(Cc2cccc(Cl)c2)CC1 (centres undefined) have GI50 strictly under 500 nM?
Yes

Does CNC(=O)c1cnc2[nH]ccc2c1N[C@@H]1CCN(Cc2ccc(Cl)cc2)[C@H](C)C1 (relative stereo) have GI50 strictly under 500 nM?
Yes

Quick check: does CNC(=O)c1cnc2[nH]ccc2c1N[C@@H]1CCN(Cc2ccc(Cl)cc2)[C@H](C)C1 have GI50 under 500 nM?
No

hey, is GI50 for CNC(=O)c1cnc2[nH]ccc2c1N[C@@H]1CCN(Cc2cccc(Cl)c2)[C@@H](C)C1 (relative stereo) lower than 500 nM or not?
Yes

* * *

Kindly state GI50 for each of the entries shown.
- targetUnderTest: Tyrosine-protein kinase JAK2 (Homo sapiens, UniProt O60674)
- Sequence (O60674 whole entry): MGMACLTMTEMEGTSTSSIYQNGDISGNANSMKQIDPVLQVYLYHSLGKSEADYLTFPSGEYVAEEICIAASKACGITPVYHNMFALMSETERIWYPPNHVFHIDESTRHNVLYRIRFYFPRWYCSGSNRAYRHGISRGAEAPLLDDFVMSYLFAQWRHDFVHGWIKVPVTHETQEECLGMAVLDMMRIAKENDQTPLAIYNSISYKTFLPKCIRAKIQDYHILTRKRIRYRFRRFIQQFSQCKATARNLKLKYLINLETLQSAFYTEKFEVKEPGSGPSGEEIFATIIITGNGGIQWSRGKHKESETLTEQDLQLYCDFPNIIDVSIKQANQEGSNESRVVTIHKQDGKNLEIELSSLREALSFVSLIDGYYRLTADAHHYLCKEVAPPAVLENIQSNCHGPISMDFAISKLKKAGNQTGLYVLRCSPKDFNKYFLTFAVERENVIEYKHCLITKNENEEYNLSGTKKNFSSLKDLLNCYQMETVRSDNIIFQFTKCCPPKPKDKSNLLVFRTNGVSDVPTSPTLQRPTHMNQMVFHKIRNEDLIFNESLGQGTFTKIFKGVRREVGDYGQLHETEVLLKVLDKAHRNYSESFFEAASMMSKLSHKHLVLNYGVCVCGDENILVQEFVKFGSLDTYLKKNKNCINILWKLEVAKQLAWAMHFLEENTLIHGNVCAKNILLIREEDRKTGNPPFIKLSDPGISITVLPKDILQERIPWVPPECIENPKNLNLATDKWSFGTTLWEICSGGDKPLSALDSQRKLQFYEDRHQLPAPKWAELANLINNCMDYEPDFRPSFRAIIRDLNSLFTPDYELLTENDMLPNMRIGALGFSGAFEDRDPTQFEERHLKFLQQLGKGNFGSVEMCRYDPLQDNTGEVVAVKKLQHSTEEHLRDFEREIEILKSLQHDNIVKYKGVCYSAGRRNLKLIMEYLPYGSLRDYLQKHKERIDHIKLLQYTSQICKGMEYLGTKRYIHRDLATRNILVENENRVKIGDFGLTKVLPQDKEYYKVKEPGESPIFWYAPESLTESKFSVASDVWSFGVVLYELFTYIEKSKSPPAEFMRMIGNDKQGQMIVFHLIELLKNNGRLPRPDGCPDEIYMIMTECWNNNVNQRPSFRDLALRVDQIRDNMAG
- conditionDescription: BaF3
- Description: Inhibition of JAK2 (unknown origin) transfected in mouse BAF3 cells assessed as cell growth inhibition incubated for 72 hrs by CCK8 assay
One number for each entry, in µM.

Here's what some known entries look like.
>>> obsvalue("CC(=O)Nc1cc(Oc2ccc3c(c2)CCN3C(=O)Nc2ccc(CN3CCN(C)CC3)c(C(F)(F)F)c2)ncn1")
0.409
>>> obsvalue("CNC(=O)c1cnc2[nH]ccc2c1NC1CC2CCC(C1)N2Cc1ccc(Cl)cc1 (centres undefined)")
3.95

The record that follows has no GI50 shown yet.
Fill in: GI50 on Tyrosine-protein kinase JAK2 (Homo sapiens, UniProt O60674), entry CNC(=O)c1cnc2[nH]ccc2c1NC1CCCN(Cc2cccc(Cl)c2)CC1 (centres undefined)
7.69
